assay: Biotin-PGE2 ELISA (PGE2-biotinamide binding to captured IgG); conditions: Biotin-PGE2 5 μM

molecule: L21: human anti-PGE2 antibody from PROfusion mRNA display; VH SEQ ID NO 33, VL SEQ ID NO 36 (antibody, V domains shown) VH: EVQLVQSGSELKKPGTSVKVSCKASGYTLTTYAMNWVRQAPGQGLEWMGWIGTSTGNPTYAQGFTGRFVFSLDTSVNTAHLQIYSLKAEDTALYYCARSSLTRPADYWGQGTLVTVSS VL: QSGLTQPPSVSGAPGQRVTISCFGSSSNIGAGYDVHWYQQLPGAAPKLLIFGNNNRPSGVPDRFSGSKSGTSASLAITGLQAEDEADYYCQSCDSSLSGAVFGTGTKVTVL
Binding to PGE2-Biotinamide (OD450): 0.31

molecule: L11: human anti-PGE2 antibody from PROfusion mRNA display; VH SEQ ID NO 25, VL SEQ ID NO 29 (antibody, V domains shown) VH: EVQLVQSGPELKKPGTSVKVSCKASGYTLTTYAMNWVRQAPGQGLEWMGWIDTSTGNPTYAPGFLGRFVFSLDTSLSTTYLQISSLKPDDTAVYYCARSSHTRPGDFWGQGTLVTVSS VL: QSGLTQPPSVSGTPGQRVTISCSGSESNVGTNSVNWYQQLPGAAPRLLIRGNSDRPSGVPDRFSASKSGTSASLAISRLQSEDEADYFCGACDGRLSGLYVFGTGTKVTVL
Binding to PGE2-Biotinamide (OD450): 0.07
